Every entry's value here was drawn from paper PMC8098682.

Molecular target: UniProt:P51066
Sequence (P51066 1-434): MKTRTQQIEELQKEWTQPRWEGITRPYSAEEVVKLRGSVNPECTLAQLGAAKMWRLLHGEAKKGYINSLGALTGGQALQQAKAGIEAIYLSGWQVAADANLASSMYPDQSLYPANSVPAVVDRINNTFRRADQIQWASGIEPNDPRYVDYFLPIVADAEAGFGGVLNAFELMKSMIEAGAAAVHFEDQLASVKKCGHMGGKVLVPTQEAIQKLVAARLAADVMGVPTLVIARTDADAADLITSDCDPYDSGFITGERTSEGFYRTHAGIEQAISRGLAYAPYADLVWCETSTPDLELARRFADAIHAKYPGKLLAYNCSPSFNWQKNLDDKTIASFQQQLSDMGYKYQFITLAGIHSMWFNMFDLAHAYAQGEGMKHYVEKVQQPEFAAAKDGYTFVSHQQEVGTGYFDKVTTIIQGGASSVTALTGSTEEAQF
REPORTED_METRIC: IC50

IC50 reported for this compound C=C(CC(=O)O)C(=O)O [ITA, itaconate] : ~2600 µM
